SYSTEM NAME: AmtB–GlnK interaction (Escherichia coli)
Construct: pelB signal peptide (N, cleaved yes); 10x His-tag (N, cleaved yes); made in house; host or cells: AmtB: Escherichia coli C41(DE3), pET15b; stGlnK: Escherichia coli ArcticExpress (DE3) RIL, pET28b
TEST DESCRIPTION: Native MS lipid titration, GlnK binding to apo or lipid-bound AmtB; coupling factors (allosteric modulation)
RUN CONDITIONS: KD,ALG, GlnK binding AmtB bound to 1 lipid, 50 µM ADP, 298 K
Listed next: entries and their corresponding Kd.
MEASUREMENT KIND: Kd (µM)

MOLECULE: CCCCCCCC/C=C\CCCCCCCC(=O)O[C@H](COC(=O)CCCCCCCCCCCCCCC)COP(=O)(O)OC[C@H](N)C(=O)O
ASSAY VALUE: 0.446
//
MOLECULE: CCCCCCCC/C=C\CCCCCCCC(=O)OC[C@H](COP(=O)(O)OCCN)OC(=O)CCCCCCC/C=C\CCCCCCCC [DOPE (cis)]
ASSAY VALUE: 0.421
//
MOLECULE: CCCCCCCC/C=C\CCCCCCCC(=O)O[C@H](COC(=O)CCCCCCCCCCCCCCC)COP(=O)(O)OCCN
ASSAY VALUE: 0.391
//
MOLECULE: CCCCCCCCCCCCCCCC(=O)OC[C@H](COP(=O)(O)OCC(O)CO)OC(=O)CCCCCCCCCCCCCCC (stereo partly shown)
ASSAY VALUE: 0.424
//
MOLECULE: CCCCCCCC/C=C\CCCCCCCC(=O)O[C@H](COC(=O)CCCCCCCCCCCCCCC)COP(=O)(O)O
ASSAY VALUE: 0.644
//
MOLECULE: CCCCCCCC/C=C\CCCCCCCC(=O)O[C@H](COC(=O)CCCCCCCCCCCCCCC)COP(=O)(O)OCC(O)CO (stereo partly shown)
ASSAY VALUE: 0.485
//
MOLECULE: CCCCCCCCCCCC(=O)OC[C@H](COP(=O)(O)OCC(O)CO)OC(=O)CCCCCCCCCCC (stereo partly shown)
ASSAY VALUE: 0.401

###

SYSTEM NAME: AmtB–GlnK interaction (Escherichia coli, UniProt P69681)
Construct: pelB signal peptide (N, cleaved yes); 10x His-tag (N, cleaved yes); made in house; host or cells: AmtB: Escherichia coli C41(DE3), pET15b; stGlnK: Escherichia coli ArcticExpress (DE3) RIL, pET28b
Sequence (P0AC55 whole entry Y51F): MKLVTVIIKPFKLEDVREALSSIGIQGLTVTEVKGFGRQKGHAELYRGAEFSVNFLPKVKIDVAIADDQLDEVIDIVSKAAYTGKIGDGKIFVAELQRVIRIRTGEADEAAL
Sequence (P69681 23-428): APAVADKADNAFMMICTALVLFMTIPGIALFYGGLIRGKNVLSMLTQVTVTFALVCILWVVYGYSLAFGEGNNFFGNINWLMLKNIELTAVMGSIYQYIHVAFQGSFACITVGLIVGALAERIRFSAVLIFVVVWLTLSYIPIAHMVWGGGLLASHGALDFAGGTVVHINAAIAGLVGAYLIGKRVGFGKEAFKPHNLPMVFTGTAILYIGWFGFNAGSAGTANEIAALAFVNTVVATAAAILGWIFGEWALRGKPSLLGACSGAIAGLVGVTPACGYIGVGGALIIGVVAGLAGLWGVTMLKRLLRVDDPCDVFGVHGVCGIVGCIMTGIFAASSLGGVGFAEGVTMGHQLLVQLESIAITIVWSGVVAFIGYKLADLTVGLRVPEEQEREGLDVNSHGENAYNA
TEST DESCRIPTION: Native MS lipid titration, GlnK binding to apo or lipid-bound AmtB; coupling factors (allosteric modulation)
RUN CONDITIONS: third bound lipid

MOLECULE: CCCCCCCCCCCCCC(=O)OC[C@H](COP(=O)(O)OCC(O)CO)OC(=O)CCCCCCCCCCCCC (stereo partly drawn)
Coupling factor a3: 1.04
--
MOLECULE: CCCCCCCC/C=C\CCCCCCCC(=O)O[C@H](COC(=O)CCCCCCCCCCCCCCC)COP(=O)(O)O
Coupling factor a3: 0.94
--
MOLECULE: CCCCCCCCCCCCCCCC(=O)OC[C@H](COP(=O)(O)OCC(O)CO)OC(=O)CCCCCCCCCCCCCCC (stereo partly drawn)
Coupling factor a3: 1.66
--
MOLECULE: CCCCCCCC/C=C\CCCCCCCC(=O)O[C@H](COC(=O)CCCCCCCCCCCCCCCCC)COP(=O)(O)OCCN
Coupling factor a3: 1.57
--
MOLECULE: CCCCCCCCCCCC(=O)OC[C@H](COP(=O)(O)OCC(O)CO)OC(=O)CCCCCCCCCCC (stereo partly drawn)
Coupling factor a3: 1.19
--
MOLECULE: CCCCCCCC/C=C\CCCCCCCC(=O)OC[C@H](COP(=O)(O)OCC(O)COP(=O)(O)OC[C@@H](COC(=O)CCCCCCC/C=C\CCCCCCCC)OC(=O)CCCCCCC/C=C\CCCCCCCC)OC(=O)CCCCCCC/C=C\CCCCCCCC (stereo partly drawn)
Coupling factor a3: 1.11
--
MOLECULE: CCCCCCCC/C=C/CCCCCCCC(=O)OC[C@H](COP(=O)(O)OCCN)OC(=O)CCCCCCC/C=C/CCCCCCCC [DOPE (trans)]
Coupling factor a3: 5.28
--
MOLECULE: CCCCCCCC/C=C\CCCCCCCC(=O)O[C@H](COC(=O)CCCCCCCCCCCCCCC)COP(=O)([O-])OCC[N+](C)(C)C
Coupling factor a3: 2.50
--
MOLECULE: CCCCCCCC/C=C\CCCCCCCC(=O)O[C@H](COC(=O)CCCCCCCCCCCCCCC)COP(=O)(O)OC[C@H](N)C(=O)O
Coupling factor a3: 1.13
--
MOLECULE: CCCCCCCC/C=C\CCCCCCCC(=O)O[C@H](COC(=O)CCCCCCCCCCCCCCC)COP(=O)(O)OCC(O)CO (stereo partly drawn)
Coupling factor a3: 1.74
--
MOLECULE: CCCCCCCC/C=C\CCCCCCCC(=O)O[C@H](COC(=O)CCCCCCCCCCCCCCC)COP(=O)(O)OCCN
Coupling factor a3: 2.04
--
MOLECULE: CCCCCCCC/C=C\CCCCCCCC(=O)OC[C@H](COP(=O)(O)OCCN)OC(=O)CCCCCCC/C=C\CCCCCCCC [DOPE (cis)]
Coupling factor a3: 1.71

###

SYSTEM NAME: AmtB–GlnK interaction (Escherichia coli, UniProt P69681)
Construct: pelB signal peptide (N, cleaved yes); 10x His-tag (N, cleaved yes); made in house; host or cells: AmtB: Escherichia coli C41(DE3), pET15b; stGlnK: Escherichia coli ArcticExpress (DE3) RIL, pET28b
TEST DESCRIPTION: Native MS lipid titration, GlnK binding to apo or lipid-bound AmtB; coupling factors (allosteric modulation)
RUN CONDITIONS: KD,AG, GlnK binding apo AmtB, from global fit of the titration with the named lipid, 50 µM ADP, 298 K
// reported Kd for each item listed

COMPOUND: CCCCCCCC/C=C\CCCCCCCC(=O)OC[C@H](COP(=O)(O)OCCN)OC(=O)CCCCCCC/C=C\CCCCCCCC [DOPE (cis)]
Kd (µM): 0.517
//
COMPOUND: CCCCCCCCCCCCCC(=O)OC[C@H](COP(=O)(O)OCC(O)CO)OC(=O)CCCCCCCCCCCCC (stereo partly shown)
Kd (µM): 0.551
//
COMPOUND: CCCCCCCC/C=C\CCCCCCCC(=O)O[C@H](COC(=O)CCCCCCCCCCCCCCC)COP(=O)(O)O
Kd (µM): 0.517
//
COMPOUND: CCCCCCCC/C=C\CCCCCCCC(=O)O[C@H](COC(=O)CCCCCCCCCCCCCCCCC)COP(=O)(O)OCCN
Kd (µM): 0.528
//
COMPOUND: CCCCCCCC/C=C/CCCCCCCC(=O)OC[C@H](COP(=O)(O)OCCN)OC(=O)CCCCCCC/C=C/CCCCCCCC [DOPE (trans)]
Kd (µM): 0.556
//
COMPOUND: CCCCCCCC/C=C\CCCCCCCC(=O)O[C@H](COC(=O)CCCCCCCCCCCCCCC)COP(=O)(O)OCCN
Kd (µM): 0.504
//
COMPOUND: CCCCCCCCCCCC(=O)OC[C@H](COP(=O)(O)OCC(O)CO)OC(=O)CCCCCCCCCCC (stereo partly shown)
Kd (µM): 0.522

###

Quick reference for Kd among some compounds
SYSTEM NAME: AmtB–GlnK complex (Escherichia coli)
Construct: pelB signal peptide (N, cleaved yes); 10x His-tag (N, cleaved yes); made in house; host or cells: AmtB: Escherichia coli C41(DE3), pET15b; stGlnK: Escherichia coli ArcticExpress (DE3) RIL, pET28b
Sequence (P0AC55 whole entry Y51F): as the sequence (P0AC55 whole entry Y51F) above
Sequence (P69681 23-428): as the sequence (P69681 23-428) above
TEST DESCRIPTION: Native MS lipid titration, lipid binding to AmtB–GlnK (equilibrium-coupled binding model)
RUN CONDITIONS: KD,AGL1, first lipid binding to AmtB–GlnK, 50 µM ADP, 298 K

COMPOUND: CCCCCCCCCCCCCC(=O)OC[C@H](COP(=O)(O)OCC(O)CO)OC(=O)CCCCCCCCCCCCC (stereo partly shown)
Kd: 6.92 µM
--
COMPOUND: CCCCCCCCCCCCCCCC(=O)OC[C@H](COP(=O)(O)OCC(O)CO)OC(=O)CCCCCCCCCCCCCCC (stereo partly shown)
Kd: 14.8 µM
--
COMPOUND: CCCCCCCCCCCC(=O)OC[C@H](COP(=O)(O)OCC(O)CO)OC(=O)CCCCCCCCCCC (stereo partly shown)
Kd: 17.1 µM
--
COMPOUND: CCCCCCCC/C=C\CCCCCCCC(=O)OC[C@H](COP(=O)(O)OCCN)OC(=O)CCCCCCC/C=C\CCCCCCCC [DOPE (cis)]
Kd: 12.3 µM
